Reference source for all entries: patent US11414424B2

# Tested on: bovine cardiac myofibrils
# Protocol description: Myofibril assay: PK/LDH-coupled steady-state ATPase activity of skinned bovine cardiac myofibrils
# Format: biochemical
# Measurement parameters: Ca2+ activating to 75% of maximal rate
# Method: To evaluate the effect of compounds on the ATPase activity of full-length cardiac myosin in the context of the native sarcomere, skinned myofibril assays were performed. […] Small molecule agents were assessed for their ability to inhibit the steady-state ATPase activity of bovine cardiac myofibrils using pyruvate kinase and lactate dehydrogenase (PK/LDH)-coupled enzyme system. This assay regenerates myosin-produced ADP into ATP by oxidizing NADH, producing an absorbance change at 340 nm. […]
Kindly state CDMF75 IC15 for each of the entries shown.
Write the value in nM as a bare number.

Measured CDMF75 IC15, COC(=O)C12CC(C3C(=O)N(c4ncc(Cl)cc4F)CC(=O)N3Cc3ccc(C(F)(F)F)cc3)(C1)C2 (stereo not shown) [Compound 778] : 2400

For reference, reported CDMF75 IC15 for CCOC(=O)C12CC(C3C(=O)N(c4ncc(Cl)cc4F)CC(=O)N3Cc3ccc(C(F)(F)F)cc3)(C1)C2 (stereo not shown) [Compound 782] stands at 3600

Short answer for Cc1cc(N2CCC3(C2)C(=O)N(C(C)C)CC(=O)N3Cc2ccc(C(F)(F)F)cc2)ccn1 (stereo not shown) [Compound 72] : CDMF75 IC15 was 9000

response.value for CC(C)N1CC(=O)N(Cc2ccc(Cl)cc2)C2(CN(c3ccccc3)C2)C1=O [Compound 2] (field: CDMF75 IC15) = 1800

====

# System: bovine cardiac myofibrils
# Protocol description: Myofibril assay: PK/LDH-coupled steady-state ATPase activity of skinned bovine cardiac myofibrils
# Assay type: biochemical
# Measurement parameters: Ca2+ activating to 75% of maximal rate
Outcome measure: CDMF75 IC15 (nM)
Express it in nM; write the number only.

Note to self: CDMF75 IC15 recorded for `Cc1cncc(N2CC3(C2)C(=O)N(C(C)C)CC(=O)N3Cc2ccc(Cl)cc2)c1` was 2700

Reported CDMF75 IC15 ( `O=C1CN(c2ncc(Cl)cc2F)C(=O)C2(CC2)N1Cc1ccc(C(F)(F)F)cc1` ) = 800

Reported CDMF75 IC15 for Cc1cc(CN2C(=O)CN(c3ncc(Cl)cc3C)C(=O)C2C2COC2)ccc1F (stereo not drawn) was 3200

Measured CDMF75 IC15 of O=C1C(C2COC2)N(Cc2ccc(Cl)cc2)C(=O)CN1c1ncc(Br)cc1F (stereo not drawn) : 1400

CDMF75 IC15 in this record for `CC(C)N1CC(=O)N(Cc2ccc(Cl)cc2)C2(CN(c3cccnn3)C2)C1=O` : 2200

# molecule `CC1(C)C(=O)N(c2ncc(Cl)cc2F)CC(=O)N1Cc1ccc(Cl)cc1` ; its CDMF75 IC15 = 2200

Entry NC(=O)C12CC(C3C(=O)N(c4ncc(Cl)cc4F)CC(=O)N3Cc3ccc(Cl)cc3)(C1)C2 (stereo not drawn) — recorded CDMF75 IC15 = 1640

O=C1C(C2CCS(=O)(=O)CC2)N(Cc2ccc(C(F)(F)F)cc2)C(=O)CN1c1ncc(Cl)cc1F (stereo not drawn) yielded CDMF75 IC15 of 27900

# molecule `N#Cc1ccc(N2CC(=O)N(Cc3ccc(Cl)cc3)[C@]3(C[C@@H](C(N)=O)C3)C2=O)c(F)c1` ; its CDMF75 IC15 = 700

Looking up `CC(=O)N1CC[C@]2(C1)C(=O)N(c1ccc(C#N)cc1F)CC(=O)N2Cc1ccc(C(F)(F)F)cc1` , I see its CDMF75 IC15 listed as 500

# CDMF75 IC15 (molecule: `CC(C)N1CC(=O)N(Cc2ccc(Cl)cc2)C2(CN(c3cncc(F)c3)C2)C1=O` ) is 3100

# molecule `CC(=O)N1CC2(C1)C(=O)N(c1ncc(C(F)F)cc1F)CC(=O)N2[C@@H](C)c1ccc(Cl)cc1` ; its CDMF75 IC15 = 13000

Entry `COC(=O)c1cccc(N2CC3(C2)C(=O)N(c2ccc(C#N)cc2F)CC(=O)N3Cc2ccc(C(F)(F)F)cc2)c1` — recorded CDMF75 IC15 = 300

Query Cc1noc([C@H]2C[C@]3(C2)C(=O)N(c2ccc(C#N)cc2F)CC(=O)N3Cc2ccc(C(F)(F)F)cc2)n1 [Compound 432B] yields CDMF75 IC15 of 500

The molecule `N#Cc1ccc(N2CC3(C2)C(=O)N(C2CCCCC2)CC(=O)N3Cc2ccc(C(F)(F)F)cc2)nc1` showed CDMF75 IC15 equal to 1800

Input `CNC(=O)N1CC2(C1)C(=O)N(c1ccc(C#N)c(F)c1)CC(=O)N2Cc1ccc(C(F)(F)F)cc1` . Output CDMF75 IC15: 400

Please fill in: CDMF75 IC15 reported for O=C1C(C2COC2)N(Cc2ccc(C(F)(F)F)cc2)C(=O)CN1c1ncc(Cl)cc1F (single isomer, unassigned) [Compound 861A] = 1000

Measured CDMF75 IC15 of COc1cnc(N2CC(=O)N(Cc3ccc(C(F)(F)F)cc3)C(C3COC3)C2=O)c(F)c1 (racemic) [Compound 703] : 10100

Lab note: `N#Cc1ccc(N2CC(=O)N(Cc3ccc(C(F)(F)F)cc3)[C@]3(CCN(C(=O)C4COC4)C3)C2=O)c(F)c1` gave CDMF75 IC15 of 1300

Looking up `CNC(=O)N1CC2(C1)C(=O)N(c1ccc(C)cc1)CC(=O)N2Cc1ccc(C(F)(F)F)cc1` , I found its CDMF75 IC15 recorded as 6400

Just so you know, measured CDMF75 IC15 for `CNC(=O)N1CC2(C1)C(=O)N(c1ccc(Cl)cc1F)CC(=O)N2Cc1ccc(C(F)(F)F)cc1` came out at 300

The molecule `CC(C)N1CC(=O)N(Cc2ccc(Cl)cc2)C2(CN(C(=O)Nc3cnn(C)c3)C2)C1=O` showed CDMF75 IC15 equal to 17600

Form: molecule = CNC(=O)N1CCC2(C1)C(=O)N(Cc1ccc(OC)cc1)CC(=O)N2Cc1ccc(Cl)cc1 (stereo not drawn) ; CDMF75 IC15 = 8000

Record COc1cnc(N2CC(=O)N(Cc3ccc(Cl)cc3)C(C3COC3)C2=O)c(F)c1 (stereo not drawn) . Reported CDMF75 IC15: 7900

The molecule listed as NC(=O)C12CC(C3C(=O)N(c4ncc(Cl)cc4F)CC(=O)N3Cc3ccc(F)cc3)(C1)C2 (stereo not drawn) has a reported CDMF75 IC15 of 2700

Consider Cc1cc(CN2C(=O)CN(c3ncc(Cl)cc3F)C(=O)C2C2COC2)ccc1F (stereo not drawn) . Its measured CDMF75 IC15 is 1100

According to the records, this molecule `CNC(=O)N1CC2(C1)C(=O)N(c1ccc(OC)cc1)CC(=O)N2Cc1ccc(C(F)(F)F)cc1` displays CDMF75 IC15 of 3800

Lookup result for O=C1C(C2CC(O)C2)N(Cc2ccc(C(F)(F)F)cc2)C(=O)CN1c1ncc(Cl)cc1F (single isomer, unassigned) [Compound 740A] ; measured CDMF75 IC15: 1100

Lab note: measured CDMF75 IC15 of CC(C)N1CC(=O)N(Cc2ccc(Cl)cc2)C2(CCN(c3ccncn3)C2)C1=O (stereo not drawn) was 4800

The molecule listed as `CC(C)N1CC(=O)N(Cc2ccc(Cl)cc2)C2(CN(c3ccnc(C(=O)O)c3)C2)C1=O` shows CDMF75 IC15 equal to 24500

====

# System: bovine cardiac myofibrils
# Protocol description: Myofibril assay: PK/LDH-coupled steady-state ATPase activity of skinned bovine cardiac myofibrils
# Assay type: biochemical
# Measurement parameters: Ca2+ activating to 75% of maximal rate
Give CDMF75 IC15 for every item shown.
The reply should contain only the number, in µM.

For CC(=O)NCC1(C)C(=O)N(c2ncc(Cl)cc2F)CC(=O)N1Cc1ccc(C(F)(F)F)cc1 (single isomer, unassigned) [Compound 630A] on bovine cardiac myofibrils, measured CDMF75 IC15 was 9.7

Record CC(C)N1CC(=O)N(Cc2ccc(Cl)cc2)C(c2ccc(Cl)cc2)C1=O (single isomer, unassigned) [Compound 288A] has bovine cardiac myofibrils CDMF75 IC15 equal to 0.8

====

# Test system: bovine cardiac myofibrils
# Protocol description: Myofibril assay: PK/LDH-coupled steady-state ATPase activity of skinned bovine cardiac myofibrils
# Assay type: biochemical
# Measurement parameters: Ca2+ activating to 75% of maximal rate
# Procedure: To evaluate the effect of compounds on the ATPase activity of full-length cardiac myosin in the context of the native sarcomere, skinned myofibril assays were performed. […] Small molecule agents were assessed for their ability to inhibit the steady-state ATPase activity of bovine cardiac myofibrils using pyruvate kinase and lactate dehydrogenase (PK/LDH)-coupled enzyme system. This assay regenerates myosin-produced ADP into ATP by oxidizing NADH, producing an absorbance change at 340 nm. […]
Can you tell me CDMF75 IC15 for the items I'm about to list?
Please state the figure in nM; there is no need to write the unit.

The reported value for N#Cc1ccc(N2CC(=O)N(Cc3ccc(Cl)cc3)C3(CCN(C(=O)C4CC4)C3)C2=O)c(F)c1 (stereo in doubt) in terms of CDMF75 IC15 is 400

Value of CDMF75 IC15 reported for the compound Cc1ccc(N2CCC3(C2)C(=O)N(C(C)C)CC(=O)N3Cc2ccc(Cl)cc2)nc1 (stereo not drawn) is 1100

Record `CC(C)N1CC(=O)N(Cc2ccc(C(F)(F)F)cc2)C2(CN(c3ccccn3)C2)C1=O` . Reported CDMF75 IC15: 900

Sample CC(C)N1CC(=O)N(Cc2ccc(C(F)(F)F)cc2)C2(CCN(c3cc(C(N)=O)ccn3)C2)C1=O (stereo not drawn) ; CDMF75 IC15 observed: 3300

Measured CDMF75 IC15 of CC(C)N1CC(=O)N(Cc2ccc(Cl)cc2)C2(CCN(C(N)=O)C2)C1=O (single isomer, unassigned) [Compound 367A] : 8800

Just so you know, measured CDMF75 IC15 for COc1cnc(N2CC(=O)N(Cc3ccc(C)cc3)C(C3COC3)C2=O)c(F)c1 (stereo not drawn) came out at 19400

So, Cc1ccc(CN2C(=O)CN(c3ncc(Cl)cc3F)C(=O)C2C2COC2)cc1 (stereo not drawn) ? Its CDMF75 IC15 was 2300

# compound O=C1CN(c2ncc(Cl)cc2F)C(=O)C2(CCOC2)N1Cc1ccc(C(F)(F)F)cc1 (stereo not drawn) ; its CDMF75 IC15 = 1400

Kindly note the recorded CDMF75 IC15 for CC(C)N1CC(=O)N(Cc2ccc(C(F)(F)F)cc2)C2(CCN(C(=O)NC3CC3)C2)C1=O (stereo not drawn) , which is 14000

Reported CDMF75 IC15 for Cc1cc(Cl)cnc1N1CC(=O)N(Cc2ccc(Cl)cc2)C(CC2COC2)C1=O (stereo not drawn) was 7000

CDMF75 IC15 recorded for this compound, O=C1C(C2COC2)N(Cc2ccc(C(F)(F)F)c(F)c2)C(=O)CN1c1ncc(Cl)cc1F (stereo not drawn) , is 2900

Recorded result, `CCC(=O)N1CC[C@]2(C1)C(=O)N(c1ccc(C#N)cc1F)CC(=O)N2Cc1ccc(C(F)(F)F)cc1` , CDMF75 IC15: 400

The value of CDMF75 IC15 measured for the compound Cc1ccc(CN2C(=O)CN(c3ncc(Cl)cc3F)C(=O)C2C2COC2)cc1F (stereo not drawn) turned out to be 2900

The compound `N#Cc1ccc(N2CC3(C2)C(=O)N(C2CCCC2)CC(=O)N3Cc2ccc(C(F)(F)F)cc2)nc1` showed CDMF75 IC15 equal to 4100

# compound Cc1cc(Cl)cnc1N1CC(=O)N(Cc2ccc(F)cc2)C(C2COC2)C1=O (stereo not drawn) ; its CDMF75 IC15 = 12400

response.value for `CC(=O)N1CC2(C1)C(=O)N(c1ccc(C#N)c(F)c1)CC(=O)N2Cc1ccc(C(F)(F)F)cc1` (field: CDMF75 IC15) = 2700

CNC(=O)N1CC(C2C(=O)N(c3ncc(Cl)cc3F)CC(=O)N2Cc2ccc(C(F)(F)F)cc2)C1 (stereo not drawn) has a reported CDMF75 IC15 of 12200

The recorded CDMF75 IC15 for `Cc1cc(Cl)cnc1N1CC(=O)N(Cc2ccc(F)cc2)C2(CN(c3ccc(F)cn3)C2)C1=O` is 500

Reported CDMF75 IC15 ( `CC(C)[C@H]1C(=O)N(c2ccc(C#N)cc2F)CC(=O)N1Cc1ccc(C(F)(F)F)cc1` ) = 600

The compound listed as O=C1C(C2COC2)N(Cc2ccc(F)c(F)c2)C(=O)CN1c1ncc(Cl)cc1F (stereo not drawn) shows CDMF75 IC15 equal to 2100
